# Test system: NCI-H460 lung
# assay details: NCI-60 one-dose screen, 48 h (100 = growth as untreated, 0 = no growth, -100 = all killed)
# test context: 10 µM unless noted
Compounds without any hit were thinned out: in the full panel of roughly 83,000, 20% have a hit. The source made the active and inactive calls. How the source made its calls: active means growth percent below 10; inactive means the rest.

compound: CCOC(=O)c1c2ncccc2n2c(=O)n(-c3ccc(Cl)cc3)nnc12
growth: 69.7% (inactive)
//
compound: C/C(Cc1ccc(Cl)cc1)=C(\c1ccc(OCCN2CCCCCC2)cc1)c1ccc(OC(=O)C2CCCCC2)cc1
growth: 34.7% (inactive)
//
compound: CN1CCN(Cc2ccc(NC(=O)c3[nH]ncc3Nc3ncnc4c3CCC4)cc2)CC1
growth: 6.72% (active)
//
compound: O=C1C[C@H](Sc2nc(-c3ccc(F)cc3)cc(C(F)(F)F)n2)[C@H]2CO[C@@H]1O2
growth: 106% (inactive)
//
compound: C=C1CCC2C3(C)COC(c4ccccc4Br)OC3CCC2(C)C1C/C=C1/C(=O)OCC1OC(C)=O (stereo unspecified)
growth: 1.8% (active)
//
compound: CS(CCCCN=C=S)=NC(=O)c1c(F)c(F)c(F)c(F)c1F (stereo unspecified)
growth: 65.5% (inactive)
//
compound: COc1cc(-c2cnc3nonc3n2)c(OC)c2c1OCO2
growth: 102% (inactive)
//
compound: Cc1ccc(S(=O)(=O)n2cc(-c3csc(-c4cn(C)c5ncccc45)n3)c3ccccc32)cc1
growth: 30.3% (inactive)
//
compound: Cc1ccc(Nc2c(C(N)=O)cnc3ccc(-c4csc(N)n4)cc23)cc1
growth: 100% (inactive)
//
compound: N#CC1=C(N)Oc2c(ccc3ccccc23)C1c1cccs1 (stereo unspecified)
growth: 0.254% (active)
//
compound: C/C(=C(/c1ccc(O)cc1)c1ccc(Cl)cc1)c1ccccc1
growth: -91.2% (active)
//
compound: COc1cnc2c(c1)C(=O)c1c-2n(CCCN2CCNCC2)c(=O)c2cc([N+](=O)[O-])ccc12
growth: -42.3% (active)
//
compound: OC(c1cccc(C(F)(F)F)c1)c1cnccc1NC1CCCCCC1 (stereo unspecified)
growth: -23.9% (active)
//
compound: O=C(/C=C/c1ccc(B(O)O)cc1)/C=C/c1ccc(B(O)O)cc1
growth: 57.5% (inactive)
//
compound: O=c1c2c3c(sc2n2c(CCl)nnc2n1Cc1ccccc1)CCCC3
growth: -11.5% (active)
//
compound: CSc1ccc(N=C=C(c2ccccc2)c2ccccc2)cc1
growth: 102% (inactive)
//
compound: CCCCCCCCCCCCCC1=NCCN1CCO
growth: -68.9% (active)
//
compound: Nc1cc(-c2nc3sccn3c2-c2ccnc(NCCCNS(=O)(=O)c3ccc(F)cc3)n2)ccc1F
growth: 47.4% (inactive)
//
compound: COC1C/C(=N\O)C2OC(c3ccccc3)OCC2O1 (stereo unspecified)
growth: 112% (inactive)
//
compound: CC#Cc1nc2ccccc2c(=O)[nH]1
growth: 73% (inactive)
//
compound: NS(=O)(=O)c1ccc(Nc2nc3n[nH]c(Nc4ccccc4)c3c(=O)[nH]2)cc1
growth: 103% (inactive)
